Overview of recorded % inhibition Apol 40' for various compounds
TARGET: P. falciparum apicoplast DNA polymerase (Pf-apPOL) (Plasmodium falciparum, UniProt Q8ILY1)
Sequence (Q8ILY1 entry or part of it): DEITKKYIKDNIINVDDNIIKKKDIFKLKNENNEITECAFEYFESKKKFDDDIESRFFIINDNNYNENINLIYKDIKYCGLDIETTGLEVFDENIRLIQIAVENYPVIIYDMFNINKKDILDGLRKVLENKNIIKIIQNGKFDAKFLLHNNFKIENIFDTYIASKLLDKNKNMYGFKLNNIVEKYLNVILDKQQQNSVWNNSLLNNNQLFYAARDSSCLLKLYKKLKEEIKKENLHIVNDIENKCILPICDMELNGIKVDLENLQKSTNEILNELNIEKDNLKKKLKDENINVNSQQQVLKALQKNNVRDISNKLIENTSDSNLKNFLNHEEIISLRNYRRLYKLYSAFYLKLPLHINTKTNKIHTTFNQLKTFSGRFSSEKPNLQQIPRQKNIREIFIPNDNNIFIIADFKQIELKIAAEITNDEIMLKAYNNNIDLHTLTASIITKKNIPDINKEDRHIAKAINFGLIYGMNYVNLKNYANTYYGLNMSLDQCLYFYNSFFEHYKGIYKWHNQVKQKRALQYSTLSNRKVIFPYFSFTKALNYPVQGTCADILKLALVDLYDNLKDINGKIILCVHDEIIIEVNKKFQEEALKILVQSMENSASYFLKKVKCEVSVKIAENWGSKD
ASSAY OVERVIEW: Fluorescence-based high-throughput DNA polymerase assay (molecular beacon), primary screen and dose-response;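 as to % inhibition Apol 40': compound concentration given in µM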
Type: biochemical
SETUP CONDITIONS: DRC-2, 40', concentration 2.5

| COMPOUND | UNITS | % inhibition Apol 40' |
| --- | --- | --- |
| O=C(O)C(=O)Nc1nc(-c2ccc3c(c2)OCCO3)cs1 | % | 13 |
| O=C(O)CC1=NN(c2cccc([N+](=O)[O-])c2)C(=O)C1 | % | 12 |
| COc1ccc2c(c1)CCc1c-2nc2ccc(Br)cc2c1C(=O)O | % | 17 |
| O=C(O)CC1SC(c2ccc3c(c2)OCO3)=NC1=O (stereo not shown) | % | 9 |
| O=C(Nc1ncc([N+](=O)[O-])s1)c1ccc2c(c1)C(=O)N(N1C(=O)c3ccccc3C1=O)C2=O | % | 9 |
| CN(C)C=C1SCc2ccccc2C1=O | % | 2 |
| CS(=O)(=O)c1cccc(C(=O)Nc2nnc(-c3ccno3)o2)c1 | % | 1.54 |
| Cc1nn(CC(=O)NCCSCc2ccco2)c(C)c1Br | % | 7.41 |
| CCOc1ccccc1-c1nc(-c2ccc(=O)[nH]c2)no1 [Molecule 76, CCOc1ccccc1c1onc(n1)c1ccc(=O)[nH]c1] | % | 0.0959 |
| COc1ccccc1CCC(=O)N1CCc2c(nc3cc(-c4ccccc4)[nH]n3c2=O)C1 | % | 5.58 |
| O=C(NNC(=O)C(F)(F)Sc1ccccc1)c1ccsc1 [Molecule 68, O=C(C(Sc1ccccc1)(F)F)NNC(=O)c1cscc1] | % | 5 |
| Oc1ccc(N=Nc2ccccc2)c(O)c1 | % | 1.06 |
| CC1=NNC(=O)C1Oc1ccc(Cl)cc1Cl (stereo not shown) | % | 5 |
| CSC(C)C(=O)C=CN(C)C (stereo not shown) | % | 11 |
| CCOC(=O)C(NCc1ccco1)(NC(=O)c1ccco1)C(F)(F)F (stereo not shown) | % | 3 |
| CCSc1nnc(NC(=O)Cc2csc(NC(=O)c3cnccn3)n2)s1 | % | -2.42 |

---

The following molecules are listed with their measured % inhibition Apo pol 10' values.
TARGET: UniProtKB Q8ILY1
ASSAY OVERVIEW: Fluorescence-based high-throughput DNA polymerase assay (molecular beacon), primary screen and dose-response
Assay type: biochemical
SETUP CONDITIONS: DRC-1; 10'; concentration 2.5
MEASURE: % inhibition Apo pol 10' (%)

| MOLECULE | UNITS | NUMERIC READOUT |
| --- | --- | --- |
| CSC1=C(C#N)C(=C(C#N)C#N)NC(c2ccccc2)=N1 [Molecule 2, CSc1nc([nH]c(=C(C#N)C#N)c1C#N)c1ccccc1] | % | 13.8022 |
| O=c1cc(-c2ccccc2)oc2c(O)c(O)ccc12 [Molecule 84, Oc1ccc2c(c1O)oc(cc2=O)c1ccccc1] | % | 14.1303 |
| CC(=O)c1cc2c(N)c(/C(N)=N/C#N)sc2nc1C [KU0015866] | % | 6.515 |
| O=C(NC(C(Cl)Cl)S(=O)(=O)c1ccccc1)c1ccccc1 (stereo not shown) [KU0045239] | % | 21.4346 |
| O=C1C(=Cc2ccccc2O)Oc2ccc(O)cc21 [KU0196475] | % | -5.1779 |
| O=[N+]([O-])/C=C/c1ccc(-c2ccc(Br)cc2)o1 [Molecule 31, O=N(=O)/C=C/c1ccc(o1)c1ccc(cc1)Br] | % | 11.7941 |
| O=C(O)CCS(=O)(=O)c1ccc(-c2ccc(S(=O)(=O)CCC(=O)O)cc2)cc1 [Molecule 32] | % | 22.5031 |
| Cc1ccc(NC(=O)C2CCN(C(=O)c3cc4ccsc4[nH]3)CC2)c(Br)c1 [Molecule 14] | % | 11 |
| O=C(c1c[nH]c2ncccc12)N1CCCCCC1 [Molecule 51, O=C(c1c[nH]c2c1cccn2)N1CCCCCC1] | % | 0.9621 |
| COc1ccc(C)cc1NC(=O)Cn1ccc2c(=O)[nH]ccc21 [Molecule 15, COc1ccc(cc1NC(=O)Cn1ccc2c1cc[nH]c2=O)C] | % | 1.7584 |
| O=C(O)CC1SC(c2ccc3c(c2)OCO3)=NC1=O (stereo not shown) [Molecule 69, OC(=O)CC1SC(=NC1=O)c1ccc2c(c1)OCO2] | % | 9.093 |
| COc1ccc2c(c1)C(c1ccccc1OC)CC(=O)O2 (stereo not shown) [Molecule 38, COc1ccc2c(c1)C(CC(=O)O2)c1ccccc1OC] | % | 10.6274 |
| CCCCOC(=O)CCCCCN1C(=O)C(=Cc2ccc(OC)cc2)SC1=S [Molecule 75] | % | -1.1804 |
| Cc1ccccc1C(=O)N1CCc2c(nc3cc(-c4ccccc4)[nH]n3c2=O)C1 [Molecule 41] | % | 6.184 |
| O=c1cc(CN2CCCCC2)c2cc3c(cc2o1)OCO3 [Molecule 56, O=c1cc(CN2CCCCC2)c2c(o1)cc1c(c2)OCO1] | % | -1.492 |
| Cc1cccc(-c2nnc3ccc(NS(=O)(=O)c4ccc(C)c(C)c4)nn23)c1 [Molecule 40] | % | 17.5333 |

---

TARGET: bacteriophage T4 DNA polymerase (Enterobacteria phage T4)
Construct: made in house
Sequence (P04415 1-898): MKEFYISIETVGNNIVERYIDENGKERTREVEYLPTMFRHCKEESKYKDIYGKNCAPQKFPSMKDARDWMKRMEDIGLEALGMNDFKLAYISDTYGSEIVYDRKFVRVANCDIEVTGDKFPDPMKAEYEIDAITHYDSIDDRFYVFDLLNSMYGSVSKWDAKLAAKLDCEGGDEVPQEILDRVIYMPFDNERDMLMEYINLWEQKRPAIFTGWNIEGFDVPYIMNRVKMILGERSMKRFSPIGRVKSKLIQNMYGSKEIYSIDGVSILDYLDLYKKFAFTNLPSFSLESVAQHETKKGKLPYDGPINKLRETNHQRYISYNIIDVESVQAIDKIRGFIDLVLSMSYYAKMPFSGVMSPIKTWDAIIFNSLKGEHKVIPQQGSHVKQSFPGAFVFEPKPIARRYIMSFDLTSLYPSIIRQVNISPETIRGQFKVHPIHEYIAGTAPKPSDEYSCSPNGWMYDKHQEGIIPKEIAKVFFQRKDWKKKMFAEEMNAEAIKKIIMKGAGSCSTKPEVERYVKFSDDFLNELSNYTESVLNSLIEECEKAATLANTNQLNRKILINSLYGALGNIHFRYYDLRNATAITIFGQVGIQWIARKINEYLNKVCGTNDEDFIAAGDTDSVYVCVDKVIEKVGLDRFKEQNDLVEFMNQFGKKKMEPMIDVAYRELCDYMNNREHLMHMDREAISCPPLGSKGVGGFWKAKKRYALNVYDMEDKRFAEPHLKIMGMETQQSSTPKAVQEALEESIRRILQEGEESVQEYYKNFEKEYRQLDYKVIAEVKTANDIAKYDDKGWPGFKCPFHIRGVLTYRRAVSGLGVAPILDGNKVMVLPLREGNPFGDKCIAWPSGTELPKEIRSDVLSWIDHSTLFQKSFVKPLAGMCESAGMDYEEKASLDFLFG
ASSAY OVERVIEW: Counter-screen against bacteriophage T4 DNA polymerase
Type: biochemical
SETUP CONDITIONS: DRC-2; read at 40'; concentration 40
Protocol: Codon-optimized, exonuclease-deficient Pf-apPOL was overexpressed in E. coli BL21 (DE3) and purified as described. The protein was dialysed against two, 1-liter changes of 20 mM Tris-HCl (pH 8.0), 400 mM NaCl, and 20% glycerol. […] Each compound was tested in a dose-response format to determine IC50 values. […] T4 DNA polymerase can be produced in large quantities, and is in the same family (B-family) as the replicative human DNA polymerases (α, δ, and ε)[20].
Each entry below carries its reported % inhibition T4 40' 40.
MEASURE: % inhibition T4 40' 40 (%)

| MOLECULE | TARGET | NUMERIC READOUT |
| --- | --- | --- |
| C#CC(C=CC)OC(=O)c1ccccc1C(=O)O (stereo not drawn) | bacteriophage T4 DNA polymerase (Enterobacteria phage T4) | 9 |
| O=C1CSC2=NC3=C(CCc4ccccc43)C(c3cccs3)N12 (stereo not drawn) | bacteriophage T4 DNA polymerase (Enterobacteria phage T4) | 6 |
| O=C(c1ccccc1)N1CCc2c(nc3cc(-c4ccccc4)[nH]n3c2=O)C1 | bacteriophage T4 DNA polymerase (Enterobacteria phage T4) | -17 |
| COc1ccc(C2CC(c3ccc(Cl)cc3Cl)Nc3nc(N)nn32)cc1OC (stereo not drawn) | bacteriophage T4 DNA polymerase (Enterobacteria phage T4) | 1 |
| Cc1cccc(-c2noc(C(=O)NNC(=O)C(Cl)(Cl)Cl)n2)c1 | bacteriophage T4 DNA polymerase (Enterobacteria phage T4) | -12 |
| COc1ccccc1CC(=O)N1CCc2c(nc3cc(-c4ccccc4Cl)[nH]n3c2=O)C1 | bacteriophage T4 DNA polymerase (Enterobacteria phage T4) | -51 |
| Nc1cc(Oc2ccc(O)c(N)c2)ccc1O | bacteriophage T4 DNA polymerase (Enterobacteria phage T4) | -2.76 |
| CC(=O)OCC1=C(C(=O)[O-])N2C(=O)[C@@H](NC(=O)Cc3cccs3)[C@H]2SC1.[Na+] | bacteriophage T4 DNA polymerase (Enterobacteria phage T4) | 25 |
| Cc1ccc(N2CCC(NC(=O)Cc3cccs3)C2=O)cc1C (stereo not drawn) | bacteriophage T4 DNA polymerase (Enterobacteria phage T4) | 30 |
| Cn1nc(-c2nc(-c3ccccc3)no2)c2c1CCN(C(=O)Cc1cccs1)C2 | bacteriophage T4 DNA polymerase (Enterobacteria phage T4) | 27 |
| CCCc1ccc(Oc2coc3cc(OC)ccc3c2=O)cc1 | bacteriophage T4 DNA polymerase (Enterobacteria phage T4) | -1.47 |
| Cc1ccsc1Cn1c(C)ccc1C | bacteriophage T4 DNA polymerase (Enterobacteria phage T4) | 14 |
